Molecular target: Thyrotropin receptor (Homo sapiens)
Experiment: qHTS for antagonists of the Thyroid Stimulation Hormone Receptor: Hit Validation in Primary Screen; further: nearly all actives have a fitted effect of over 80% in size
Conditions: TSHR-expressing cells, cAMP antagonist mode; series mostly up to 58 µM
Screen size: about 1,300 compounds; about 380 (29%) were called active. Another 37% or so got no clear call; they are omitted. The call rests on the fitted dose curve; in most records, active means well fitted inhibition curve with a large enough effect; inconclusive means small, poorly fitted or top-dose-only effect; inactive means flat fitted curve, though single readings scatter. This is one part of the list.
Classes used: Y (active), N (inactive)

[
  {
    "Compound": "CC(=O)N1CCc2cc(Br)cc(S(=O)(=O)N3CCC(C(=O)O)CC3)c21",
    "Group Label": "N"
  },
  {
    "Compound": "CCn1nc(C)cc1-c1nnc(Sc2ncc([N+](=O)[O-])s2)n1C",
    "Group Label": "Y"
  },
  {
    "Compound": "COC(=O)C1C(=O)NC(SC)=C(C#N)C1c1ccccc1 (configuration not stated)",
    "Group Label": "N"
  },
  {
    "Compound": "CCc1nnc(NS(=O)(=O)c2ccc(NC(=O)COc3ccc4ccccc4c3)cc2)s1",
    "Group Label": "N"
  },
  {
    "Compound": "O=C(c1ccc2c(c1)OCO2)N1CCN(S(=O)(=O)c2ccc(Cl)cc2)CC1",
    "Group Label": "N"
  },
  {
    "Compound": "COc1ccc(S(=O)(=O)NCCc2cn3nc(C)c(C)nc3n2)cc1F",
    "Group Label": "N"
  },
  {
    "Compound": "Clc1ccc2c(c1)-c1nnc(Br)n1-c1ccccc1S2",
    "Group Label": "Y"
  },
  {
    "Compound": "CCOC(=O)c1c(NC(=O)/C=C/C(=O)O)sc(C)c1-c1ccc(Cl)cc1",
    "Group Label": "Y"
  },
  {
    "Compound": "O=C(N/N=C/c1ccc[nH]1)c1sc2ccccc2c1Cl",
    "Group Label": "N"
  },
  {
    "Compound": "CC(=O)Oc1c(I)cc(I)cc1C(=O)Nc1ccc(Cl)cc1",
    "Group Label": "Y"
  },
  {
    "Compound": "Cc1ccc(S(=O)(=O)Nc2ccc(N=Nc3ccc(O)cc3)cc2)cc1",
    "Group Label": "Y"
  },
  {
    "Compound": "CC(=O)N1c2ccc(S(=O)(=O)NCCC(=O)Nc3cccc(Cl)c3)cc2CC1C (configuration not stated)",
    "Group Label": "N"
  },
  {
    "Compound": "Cc1cc(NC(=O)c2cc(-c3ccco3)on2)nn1Cc1ccc(Cl)cc1",
    "Group Label": "Y"
  },
  {
    "Compound": "COCCNc1cnn(-c2ccccc2)c(=O)c1Cl",
    "Group Label": "N"
  },
  {
    "Compound": "COc1cccc(OCC(O)CN2CC(C)CC(C)C2)c1 (configuration not stated)",
    "Group Label": "N"
  },
  {
    "Compound": "N/C(=N\\OC(=O)Nc1ccccc1)c1cccc(C(F)(F)F)c1",
    "Group Label": "N"
  },
  {
    "Compound": "O=C(Nc1nnc(C2CC2)s1)c1ccc(Cl)c(S(=O)(=O)N2CCc3ccccc3C2)c1",
    "Group Label": "Y"
  },
  {
    "Compound": "CCOC(=O)N1CCN(C(=O)c2ccc(NS(=O)(=O)c3ccc(C)cc3)cc2)CC1",
    "Group Label": "N"
  },
  {
    "Compound": "CCOc1ccc2nc(NC(=O)CS(=O)(=O)c3ccccc3)sc2c1",
    "Group Label": "N"
  },
  {
    "Compound": "NC(=O)c1ccc(CN2CCc3ccccc3C2)cc1",
    "Group Label": "N"
  },
  {
    "Compound": "CCOC(=O)C1=C(C)Nc2ccccc2N=C1NC(=O)c1cc(C)on1",
    "Group Label": "N"
  },
  {
    "Compound": "COc1ccc(C(C(=O)NC(C)(C)C)N(CCc2ccccc2)C(=O)CCC(=O)Nc2cc(C)on2)cc1 (configuration not stated)",
    "Group Label": "N"
  },
  {
    "Compound": "COc1ccc(CC(=O)Oc2cc(C)ccc2C)cc1",
    "Group Label": "N"
  },
  {
    "Compound": "CC1=C(C(=O)OC(C)(C)C)C(c2ccc3ccccc3c2)NC(=O)N1C (configuration not stated)",
    "Group Label": "N"
  },
  {
    "Compound": "CCOCCCNC(=O)C(NC(=O)c1ccc(=O)[nH]c1)c1ccc(Cl)cc1 (configuration not stated)",
    "Group Label": "N"
  },
  {
    "Compound": "COc1ccc(C(CC(=O)N2CCOCC2)c2c(OC)cc(OC)c3c(-c4ccccc4)cc(=O)oc23)cc1 (configuration not stated)",
    "Group Label": "N"
  },
  {
    "Compound": "CC(C)(CNC(=O)C1c2ccccc2-c2ccccc21)N1CCOCC1",
    "Group Label": "N"
  },
  {
    "Compound": "O=c1[nH]c(=S)[nH]c2c1CN(Cc1ccc(F)cc1)CC2",
    "Group Label": "N"
  },
  {
    "Compound": "C=C(C)C(=O)OCC(O)COc1ccc(C(C)(C)c2ccc(OCC(O)COC(=O)C(=C)C)cc2)cc1 (configuration not stated)",
    "Group Label": "Y"
  },
  {
    "Compound": "Cc1ccc(-c2nnc(SCC(=O)NC3CCCC3)n2C)cc1",
    "Group Label": "N"
  },
  {
    "Compound": "CCN(CC)C(=O)Cn1c(=O)n(-c2ccccc2)c(=O)c2sccc21",
    "Group Label": "N"
  },
  {
    "Compound": "O=C(NCCN1CCOCC1)c1c(Cl)cccc1Cl",
    "Group Label": "N"
  },
  {
    "Compound": "CCN(CC)S(=O)(=O)c1cccc(C(=O)Nc2nc3cc4c(cc3s2)OCCO4)c1",
    "Group Label": "Y"
  },
  {
    "Compound": "CC1CCc2c(sc(NC(=O)c3ccco3)c2C(=O)O)C1 (configuration not stated)",
    "Group Label": "N"
  },
  {
    "Compound": "Cn1c(CNC(=O)C(Cc2ccccc2)NC(=O)c2ccccc2)cc(=O)n(C)c1=O (configuration not stated)",
    "Group Label": "N"
  },
  {
    "Compound": "O=C(COC(=O)c1ccccc1C(=O)c1ccc(Cl)c([N+](=O)[O-])c1)NC1CCCCCC1",
    "Group Label": "Y"
  },
  {
    "Compound": "Cc1ccc(-c2nc3ccc(C(=O)O)cc3nc2-c2ccc(C)cc2)cc1",
    "Group Label": "Y"
  },
  {
    "Compound": "CCN(C(=O)CSc1nnc(CNc2cccc(OC)c2)n1C1CCCCC1)C1CCS(=O)(=O)C1 (configuration not stated)",
    "Group Label": "N"
  },
  {
    "Compound": "O=C(Nc1cccc(S(=O)(=O)Nc2ccc(Cl)cc2)c1)c1ccc2c(c1)OCCO2",
    "Group Label": "Y"
  },
  {
    "Compound": "CS(=O)(=O)N1CCc2cc(C(=O)Nc3ccc(COCC(F)(F)F)cc3)ccc21",
    "Group Label": "N"
  },
  {
    "Compound": "COC(=O)[C@H]1[C@H]2C[C@@H]3c4[nH]c5cc(OC)ccc5c4CCN3C[C@H]2C[C@@H](OC(=O)/C=C/c2cc(OC)c(OC)c(OC)c2)[C@@H]1OC",
    "Group Label": "N"
  },
  {
    "Compound": "Cc1ccc(Nc2cc(C)nc3ccc(C)cc23)cc1",
    "Group Label": "N"
  }
]

* * *

Molecular target: Thyrotropin receptor (Homo sapiens) (UniProt P16473)
Sequence (P16473 whole entry, looked up): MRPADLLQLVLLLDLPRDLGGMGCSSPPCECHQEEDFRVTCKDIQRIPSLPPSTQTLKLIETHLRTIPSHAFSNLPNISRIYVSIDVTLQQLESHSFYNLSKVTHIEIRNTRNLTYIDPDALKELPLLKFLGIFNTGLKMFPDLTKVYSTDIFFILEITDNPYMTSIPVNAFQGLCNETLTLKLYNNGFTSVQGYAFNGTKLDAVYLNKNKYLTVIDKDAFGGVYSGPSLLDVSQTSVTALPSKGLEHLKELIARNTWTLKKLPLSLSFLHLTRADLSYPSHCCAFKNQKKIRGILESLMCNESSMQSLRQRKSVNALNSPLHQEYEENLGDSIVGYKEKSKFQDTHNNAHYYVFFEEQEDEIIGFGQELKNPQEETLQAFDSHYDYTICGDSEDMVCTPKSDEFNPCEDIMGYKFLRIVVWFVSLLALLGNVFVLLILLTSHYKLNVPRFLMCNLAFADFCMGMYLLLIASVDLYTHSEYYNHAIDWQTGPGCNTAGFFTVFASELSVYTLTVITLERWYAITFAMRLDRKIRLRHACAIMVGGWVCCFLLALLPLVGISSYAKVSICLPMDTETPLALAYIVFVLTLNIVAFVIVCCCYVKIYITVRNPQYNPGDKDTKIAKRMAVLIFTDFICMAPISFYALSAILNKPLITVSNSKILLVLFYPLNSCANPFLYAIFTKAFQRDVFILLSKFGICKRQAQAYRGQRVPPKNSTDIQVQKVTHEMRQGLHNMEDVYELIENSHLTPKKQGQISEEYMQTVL
Assay: qHTS for antagonists of the Thyroid Stimulation Hormone Receptor: Hit Validation in Primary Screen; further: nearly all actives have a fitted effect of over 80% in size
Conditions: TSHR-expressing cells, cAMP antagonist mode; series mostly up to 58 µM
Out of some 1,300 compounds screened, about 380 (29%) were called active. Roughly 37% stayed inconclusive and do not appear here. The call rests on the fitted dose curve; in most records, active means well fitted inhibition curve with a large enough effect; inconclusive means small, poorly fitted or top-dose-only effect; inactive means flat fitted curve, though single readings scatter. The list shows a part of the results.
Classes used: active, inactive

[
  {
    "Molecule": "Cc1ccccc1-n1nnnc1SC1CCOC1=O (stereo not given)",
    "Assay System": "Thyrotropin receptor (Homo sapiens) (UniProt P16473)",
    "Group Label": "inactive"
  },
  {
    "Molecule": "COc1ccccc1C(=O)Nc1nnc(SCC(=O)NC2CCCC2)s1",
    "Assay System": "Thyrotropin receptor (Homo sapiens) (UniProt P16473)",
    "Group Label": "inactive"
  },
  {
    "Molecule": "CN(Cc1ccco1)S(=O)(=O)c1csc(C(N)=O)c1",
    "Assay System": "Thyrotropin receptor (Homo sapiens) (UniProt P16473)",
    "Group Label": "inactive"
  },
  {
    "Molecule": "CC(=O)Oc1c(C)cc(Cl)cc1C(=O)Nc1ccc([N+](=O)[O-])cc1Cl",
    "Assay System": "Thyrotropin receptor (Homo sapiens) (UniProt P16473)",
    "Group Label": "active"
  },
  {
    "Molecule": "COc1cc(NS(=O)(=O)c2ccc(NC(=O)c3ccc(F)cc3)cc2)ncn1",
    "Assay System": "Thyrotropin receptor (Homo sapiens) (UniProt P16473)",
    "Group Label": "inactive"
  },
  {
    "Molecule": "Cc1ccc(NC(=O)Nc2ccc3c(c2)N(C)C(=O)CS3)cc1C",
    "Assay System": "Thyrotropin receptor (Homo sapiens) (UniProt P16473)",
    "Group Label": "active"
  },
  {
    "Molecule": "CC1CCN(CCCNC(=O)CN2C(=O)CSc3ccc(S(=O)(=O)N4CCOCC4)cc32)CC1",
    "Assay System": "Thyrotropin receptor (Homo sapiens) (UniProt P16473)",
    "Group Label": "inactive"
  },
  {
    "Molecule": "COc1ccc(NC2CCCN(C(=O)CCc3cccc(F)c3)C2)cc1 (stereo not given)",
    "Assay System": "Thyrotropin receptor (Homo sapiens) (UniProt P16473)",
    "Group Label": "inactive"
  },
  {
    "Molecule": "CC(=O)N1c2ccc(S(=O)(=O)NCCC(=O)Nc3ccccc3C)cc2CC1C (stereo not given)",
    "Assay System": "Thyrotropin receptor (Homo sapiens) (UniProt P16473)",
    "Group Label": "inactive"
  },
  {
    "Molecule": "O=C(c1cc(COc2cccc3cnccc23)on1)N1CCCC(CCCO)C1 (stereo not given)",
    "Assay System": "Thyrotropin receptor (Homo sapiens) (UniProt P16473)",
    "Group Label": "active"
  },
  {
    "Molecule": "CC(=O)N(C1=C(Cl)C(=O)c2ccccc2C1=O)C1CCCCC1",
    "Assay System": "Thyrotropin receptor (Homo sapiens) (UniProt P16473)",
    "Group Label": "active"
  },
  {
    "Molecule": "O=C(NC1CCOc2ccccc21)c1ccccn1 (stereo not given)",
    "Assay System": "Thyrotropin receptor (Homo sapiens) (UniProt P16473)",
    "Group Label": "inactive"
  },
  {
    "Molecule": "C/C(=N\\NC(=O)c1cccc(Cl)c1)C1C(=O)c2ccccc2C1=O",
    "Assay System": "Thyrotropin receptor (Homo sapiens) (UniProt P16473)",
    "Group Label": "active"
  },
  {
    "Molecule": "O=C(Nc1nc(-c2ccccc2)cs1)c1ccccc1NS(=O)(=O)c1ccc(F)cc1",
    "Assay System": "Thyrotropin receptor (Homo sapiens) (UniProt P16473)",
    "Group Label": "active"
  },
  {
    "Molecule": "Cc1ccc(S(=O)(=O)Oc2ccc(/C=C(/NC(=O)c3ccccc3)C(=O)Nc3ccccc3)cc2)cc1",
    "Assay System": "Thyrotropin receptor (Homo sapiens) (UniProt P16473)",
    "Group Label": "inactive"
  },
  {
    "Molecule": "COc1ccc(Cl)cc1NC(=O)C1CCN(C(=O)C2CC(=O)N(c3ccc(C)cc3)C2)CC1 (stereo not given)",
    "Assay System": "Thyrotropin receptor (Homo sapiens) (UniProt P16473)",
    "Group Label": "inactive"
  },
  {
    "Molecule": "COC(CNC(=O)c1cn(C)c2ccc(S(=O)(=O)N3CCOCC3)cc2c1=O)OC",
    "Assay System": "Thyrotropin receptor (Homo sapiens) (UniProt P16473)",
    "Group Label": "inactive"
  },
  {
    "Molecule": "CC(C)N(Cc1ccccc1)C(=O)COC(=O)c1cnc(Cl)c(Cl)c1",
    "Assay System": "Thyrotropin receptor (Homo sapiens) (UniProt P16473)",
    "Group Label": "active"
  },
  {
    "Molecule": "CCOc1cc(C(=O)NC2CC(C)(C)NC(C)(C)C2)cc(OCC)c1OCC",
    "Assay System": "Thyrotropin receptor (Homo sapiens) (UniProt P16473)",
    "Group Label": "inactive"
  },
  {
    "Molecule": "Cc1sc2ncn(CC(=O)NCCCC(=O)NCc3ccc(F)cc3)c(=O)c2c1C",
    "Assay System": "Thyrotropin receptor (Homo sapiens) (UniProt P16473)",
    "Group Label": "inactive"
  }
]
